Tested on: B16 melanoma cells
test-protocol: Sensitivity of B16 melanoma cells, in vitro cell growth inhibition (Coulter Counter cell count)
Assay type: cell-based
condition-description: Mus musculus, dosage of 500 /ug/ml, aqueous suspension, incubation 20 hours at 37°C, cells counted 48 hours after beginning of incubation, inhibition of cell growth with respect to control
Method: The anti-tumor activity was tested in an in vitro test. In this test the sensitivity of B16 melanoma cells to the new compounds according to the invention was determined. B16 melanoma cells grow as a "monolayer". […] On day O a quantity of 5 x 10^4 B 16 melanoma cells is provided in each cell culture dish. On day 1 the compounds to be tested are vortexed in the presence of glass-beads. The compound to be tested is then addei to the dishes comprising melanoma cells in the desired quantity. […]
reported-endpoint: inhibition at 500 µg/mL

Query: What does the record list as inhibition at 500 µg/mL for Cc1cc(Cl)ccc1NC(=O)NC(=O)c1c(O)cccc1O ?
Result: 60 to 80%

Query: What measured inhibition at 500 µg/mL goes with CC(=O)Oc1cccc(Cl)c1C(=O)NC(=O)Nc1ccc(OC2CC(C)CCC2C(C)C)cc1 (stereo not shown) ?
Result: 60 to 80%

Query: Would you mind telling me what inhibition at 500 µg/mL value was observed for O=C(NC(=O)c1c(F)cccc1F)Nc1ccccc1S ?
Result: 80 to 100%

Query: What value of measured inhibition at 500 µg/mL is listed for O=C(NC(=S)Nc1cccc(O)c1)c1ccc(Cl)cc1Cl ?
Result: 80 to 100%

Query: Suppose we examine the compound CC(=O)Oc1cc(OC(F)(F)F)ccc1NC(=O)NC(=O)c1ccccc1Cl ; what inhibition at 500 µg/mL value has been reported?
Result: 40 to 60%

Query: Please give the measured inhibition at 500 µg/mL for this compound: Cc1cc(Cl)ccc1NC(=O)NC(=O)c1c(OCc2ccccc2)cccc1OCc1ccccc1
Result: 40 to 60%

Query: Need inhibition at 500 µg/mL, item O=C(NC(=O)c1ccccc1OC(=O)c1ccccc1)Nc1ccc(Cl)cc1
Result: 60 to 80%

Query: Name the reported inhibition at 500 µg/mL value associated with the compound CC(=O)Oc1cccc(Cl)c1C(=O)NC(=O)Nc1cc(C)ccc1O
Result: 80 to 100%

Query: Given the compound CC(=O)Oc1cccc(Cl)c1C(=O)NC(=O)Nc1ccc(C(=O)c2ccccc2)cc1 , what is its reported inhibition at 500 µg/mL?
Result: 80 to 100%

Query: Given the compound O=C(NC(=O)c1c(O)cccc1O)Nc1ccc(Cl)cc1 , what is its reported inhibition at 500 µg/mL?
Result: 80 to 100%

Query: Any idea what inhibition at 500 µg/mL was measured for O=C(NC(=O)c1ccccc1OCc1ccccc1)Nc1ccc(Cl)cc1 ?
Result: 20 to 40%

Query: Any idea what its inhibition at 500 µg/mL is? The compound is O=C(NC(=O)c1c(O)cccc1Cl)Nc1ccc(Cl)cc1
Result: 60 to 80%

Query: Give its inhibition at 500 µg/mL value. Item: CC(=O)Oc1ccc(C)cc1NC(=O)NC(=O)c1c(Cl)cccc1OC(C)=O
Result: 80 to 100%

Query: Given the compound CC(=O)Oc1cccc(Cl)c1C(=O)NC(=O)Nc1ccc(Cl)cc1 , what is its reported inhibition at 500 µg/mL?
Result: 80 to 100%

Query: Would you mind telling me what inhibition at 500 µg/mL value was observed for CC(=O)Oc1cccc(Cl)c1C(=O)NC(=O)Nc1ccc(O)cc1 ?
Result: 60 to 80%

Query: # inhibition at 500 µg/mL lookup, item CC(=O)Oc1cc(Cl)ccc1NC(=O)NC(=O)c1c(F)cccc1F
Result: 80 to 100%

Query: Report inhibition at 500 µg/mL for CC(=O)Oc1c(Cl)cc(C(=O)NC(=O)Nc2ccc(Cl)cc2)cc1Cl please.
Result: 60 to 80%

Query: Please look up its inhibition at 500 µg/mL: O=C(NC(=O)c1ccccc1Cl)Nc1ccc(O)cc1OC(F)(F)F
Result: 80 to 100%

Query: I would be grateful if you could share the reported inhibition at 500 µg/mL for O=C(NC(=O)c1ccccc1Cl)Nc1ccc(O)c(C(F)(F)F)c1 .
Result: 40 to 60%

The measurements presented in this section are drawn from patent EP0136745A2.
